- TEST_METHOD_NOTES: in vitro
- Assay type: cell-based, human
- EXPERIMENTAL_PARAMETERS: human, u937 cells, 10.0 μg/ml; read-out: Suppression
Kind request: treat 10% as inclusive, so cytotoxicity at 72 h at 10% or higher is Satisfied, anything lower is Not satisfied.

# COMPOUND, LABEL_CLASS
measured = [
    ("CCCCCCC(=O)CCCCCC/C=C/CC1OC(=O)C(N)(CO)C1O (stereo not shown)", "Not satisfied"),
    ("CCCCCCC(O)CCCCCCCCCC(O)C(O)C(N)(CO)C(=O)O (stereo not shown)", "Not satisfied"),
    ("CCCCCCC(O)CCCCCCCCCC1OC(=O)C(N)(CO)C1O (stereo not shown)", "Satisfied"),
    ("CCCCCCC(=O)CCCCCC/C=C/CC1OC(=O)C(CO)(NC(C)=O)C1O (stereo not shown)", "Satisfied"),
    ("CCCCCCC(O)CCCCCC/C=C/CC1OC(=O)C(N)(CO)C1O (stereo not shown)", "Satisfied"),
    ("CCCCCCC(=O)CCCCCCCCCC1OC(=O)C(N)(CO)C1O (stereo not shown)", "Not satisfied"),
]

###

- System: human allogenic MLR (peripheral blood lymphocytes)
- TEST_METHOD_NOTES: human allogenic MLR-suppressive activity
- Format: cell-based
- EXPERIMENTAL_PARAMETERS: Homo sapiens, Lymphocyte, donor C/donor D; 0.01 μg/ml; read-out: Suppression
- Protocol: The human allogenic MLR-suppressive activity was assayed as follows: […] After termination of the culture, 1.0 μCi/well of ^3 H-thymidine was added, and after 18 hours of culture, the cells were harvested by a cell-harvester. The radioactivity incorporated into the cells was measured by a liquid scintillation counter as the index of blastogenic response of lymphocytes in human allogenic MLR. […]
Here, each record is paired with measured inhibition at 0.01 µg/mL data.

# COMPOUND, UNIT_ABBREV, inhibition at 0.01 µg/mL
measured = [
    ("CCCCCCC(O)CCCCCC/C=C/CC(O)C(O)C(N)(CO)C(=O)O (stereo not shown)", "%", 77),
    ("CCCCCCC(=O)CCCCCC/C=C/CC(O)C(O)C(N)(CO)C(=O)O (stereo not shown)", "%", 74.8),
    ("CCCCCCC(=O)CCCCCC/C=C/CC1OC(=O)C(N)(CO)C1O (stereo not shown)", "%", 80.8),
    ("CCCCCCC(=O)CCCCCCCCCC(O)C(O)C(N)(CO)C(=O)O (stereo not shown)", "%", 58.1),
]

###

- TEST_METHOD_NOTES: in vitro
- Assay type: cell-based, human
- EXPERIMENTAL_PARAMETERS: human, ccrf-cem cells, 10.0 μg/ml; read-out: Suppression
Rule: measured cytotoxicity at 72 h below 10% gets Condition met; anything equal to or greater than 10% gets Condition not met.

# MOLECULE, LABEL_CLASS
data = [
    ("CCCCCCC(=O)CCCCCC/C=C/CC1OC(=O)C(N)(CO)C1O (centres unmarked)", "Condition not met"),
    ("CCCCCCC(O)CCCCCC/C=C/CC1OC(=O)C(N)(CO)C1O (centres unmarked)", "Condition met"),
    ("CCCCCCC(O)CCCCCCCCCC1OC(=O)C(N)(CO)C1O (centres unmarked)", "Condition met"),
    ("CCCCCCC(=O)CCCCCCCCCC1OC(=O)C(N)(CO)C1O (centres unmarked)", "Condition not met"),
    ("CCCCCCC(O)CCCCCC/C=C/CC(O)C(O)C(N)(CO)C(=O)O (centres unmarked)", "Condition met"),
    ("CCCCCCC(=O)CCCCCCCCCC(O)C(O)C(N)(CO)C(=O)O (centres unmarked)", "Condition not met"),
    ("CCCCCCC(=O)CCCCCC/C=C/CC1OC(=O)C(CO)(NC(C)=O)C1O (centres unmarked)", "Condition not met"),
    ("CCCCCCC(O)CCCCCCCCCC(O)C(O)C(N)(CO)C(=O)O (centres unmarked)", "Condition met"),
]
